target-under-test: CBX2 chromodomain (CBX2 ChD), N-terminal His6-tagged recombinant protein (UniProt Q14781)
Sequence (Q14781 9-66 limits assumed): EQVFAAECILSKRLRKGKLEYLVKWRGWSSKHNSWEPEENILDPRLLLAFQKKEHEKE
method-notes: competitive fluorescence polarization (FP) assay, displacement of the FITC-labelled probe
Square brackets hold non-standard residues; d marks the D form. Ends that are not written are not given here. Tyr(3-Cl) = N[C@@H](Cc1ccc(O)c(Cl)c1)C(=O)O
measurement-name: IC50 (µM)
Number in µM, nothing else.

According to the records, this binder [Tyr(3-Cl)]PIK(trimethyl)S-NH2 (also: N-terminal acylation, acyl group not given here) [KED98 (PP)] displays IC50 of 46
